Overview of recorded IC50 for various compounds
Target: Apelin receptor (Homo sapiens, UniProt P35414)
Sequence (P35414 whole entry): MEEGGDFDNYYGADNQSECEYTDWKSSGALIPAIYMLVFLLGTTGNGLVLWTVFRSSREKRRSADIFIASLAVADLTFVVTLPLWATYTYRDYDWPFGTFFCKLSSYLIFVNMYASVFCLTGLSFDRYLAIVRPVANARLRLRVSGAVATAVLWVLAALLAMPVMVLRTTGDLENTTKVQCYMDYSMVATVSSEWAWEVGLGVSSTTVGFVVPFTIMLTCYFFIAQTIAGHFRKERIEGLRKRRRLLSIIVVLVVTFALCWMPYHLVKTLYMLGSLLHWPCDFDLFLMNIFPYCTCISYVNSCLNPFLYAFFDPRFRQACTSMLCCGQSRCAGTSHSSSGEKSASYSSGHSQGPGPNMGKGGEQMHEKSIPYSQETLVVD
Experiment: Antagonist activity at APJ receptor expressed in CHOK1 cells assessed as inhibition of apelin13-induced beta-arrestin recruitment after 90 mins by luminescence assay

Answered examples (5):
compound smiles: Cc1ccnc(SCc2cc(=O)c(OC(=O)c3ccco3)co2)n1
assay result: > 79 µM
--
compound smiles: O=C(Oc1coc(CSc2ccc(OC(F)(F)F)cc2)cc1=O)c1ccc(Cl)c([N+](=O)[O-])c1
assay result: 24 µM
--
compound smiles: COc1ccc(SCc2cc(=O)c(OC(=O)c3ccc(Cl)c([N+](=O)[O-])c3)co2)cc1
assay result: 8.27 µM
--
compound smiles: CN(C)S(=O)(=O)c1ccc(C(=O)Oc2coc(CSc3ncccn3)cc2=O)cc1
assay result: > 79 µM
--
compound smiles: Cc1ccnc(SCc2cc(=O)c(NC(=O)c3ccccc3)co2)n1
assay result: > 79 µM

Req: For Apelin receptor (Homo sapiens, UniProt P35414), give the measured IC50 of the entry O=C(Oc1coc(CSc2ncccn2)cc1=O)c1ccccc1
Resp: > 79 µM

Req: Quote IC50 with test system Apelin receptor (Homo sapiens, UniProt P35414) for Cc1ccnc(SCc2cc(=O)c(OC(=O)c3ccc(Cl)cc3)co2)n1
Resp: > 79 µM

Req: Specify IC50 for Cc1ccnc(SCc2cc(=O)c(OC(=O)c3ccccc3C)co2)n1 , system Apelin receptor (Homo sapiens, UniProt P35414).
Resp: > 79 µM

Req: Report IC50 from Apelin receptor (Homo sapiens, UniProt P35414) testing of N#Cc1ccc(C(=O)Oc2coc(CSc3ncccn3)cc2=O)cc1
Resp: 6.59 µM

Req: Provide Apelin receptor (Homo sapiens, UniProt P35414) IC50 reading for Cc1ccnc(SCc2cc(=O)c(OC(=O)c3ccc(F)cc3)co2)n1 .
Resp: > 79 µM
